tested on: Plasmodium falciparum; test: GSK_TCMDC: Inhibition of Plasmodium falciparum 3D7 in whole red blood cells, using parasite LDH activity as an index of growth. Test compounds present at 2uM; assay type: functional
READOUT_TYPE: Inhibition

Example compounds with recorded Inhibition:
[Q] Plasmodium falciparum / Inhibition / Cn1c(=O)c(-c2c(Cl)cccc2Cl)cc2cnc(Nc3ccc(N4CCOCC4)cc3)nc21 : value?
[A] 98%

[Q] Plasmodium falciparum / Inhibition / O=C(/C=C/c1ccccc1)N1CCOC(CCN2CCC(c3ccccc3)CC2)(c2ccc(Cl)c(Cl)c2)C1 (stereo not given) : value?
[A] 89%

[Q] Plasmodium falciparum / Inhibition / Cc1ccc(C(C)C)cc1CON1C(=N)N=C(N)NC1(C)C.Cl : value?
[A] 94%

Others:
[Q] Plasmodium falciparum / Inhibition / O=C(CC1SC(N2N=C(c3cccs3)CC2c2ccccc2)=NC1=O)Nc1ccc(Cl)cc1 (stereo not given) : value?
[A] 83%

[Q] Plasmodium falciparum / Inhibition / CN(C)S(=O)(=O)n1ncc2c3c(N)nc(N)nc3ccc21.Cl : value?
[A] 96%

[Q] Plasmodium falciparum / Inhibition / O=C(N[C@@H](Cc1ccccc1)C(=O)O)c1cc(-c2ccc(F)cc2)no1.O=C(N[C@@H](Cc1ccccc1)C(=O)O)c1conc1-c1ccc(F)cc1 : value?
[A] 96%

[Q] Plasmodium falciparum / Inhibition / CCOC(=O)NCCSC(C)(C)[C@H](NC(=O)[C@H](Cc1cc2ccccc2s1)[C@H](CC)N(O)C=O)C(=O)Nc1nccs1 : value?
[A] 98%

[Q] Plasmodium falciparum / Inhibition / COc1cc2nc(-c3ccccc3)nc(N3CCN(C(=O)c4ccco4)CC3)c2cc1OC : value?
[A] 89%

---

Listed below: Inhibition values for each entry.
tested on: HepG2; test: GSK_TCMDC: Percent inhibition of human HepG2 cell line. Test compounds present at 10uM.; format: functional
// note: answer is a bare numeric in %

Example molecules with recorded Inhibition:
[Q] May I ask what Inhibition has been recorded for CCOC(=O)CCCCCNC[C@H](O)c1ccccc1.Cl ?
[A] 2

[Q] May I ask what Inhibition has been recorded for COc1cccc(Nc2c(C(N)=O)cnc3ccc(-c4ccccc4)cc23)c1 ?
[A] 2

Let us examine a further case.
[Q] May I ask what Inhibition has been recorded for O=C(Nc1ccc(OC2CCN(Cc3ccccc3)CC2)c(Cl)c1)c1cccs1.O=C(O)C(F)(F)F ?
[A] 2

---

test system: Plasmodium falciparum; experiment: GSK_TCMDC: Inhibition of Plasmodium falciparum Dd2 in whole red blood cells, using parasite LDH activity as an index of growth. Test compounds present at 2uM; format: functional
Decision: Inhibition >= 40% yields 1 (yes), all other cases yield 0 (no).

[Q] State whether the measured Inhibition reaches 40%, counting equality as reaching it, for Cc1ccc(Nc2nc(N)c3ccccc3n2)cc1.Cl
[A] 0 (no)

[Q] State whether the measured Inhibition reaches 40%, counting equality as reaching it, for Cc1noc(C)c1-c1cccc(CNCc2ccc(-c3cccc(-c4nc5ccccc5[nH]4)c3)cc2)c1.O=C(O)C(F)(F)F
[A] 1 (yes)

[Q] State whether the measured Inhibition reaches 40%, counting equality as reaching it, for O=C(/C=C/c1cc([N+](=O)[O-])ccc1Cl)N1CCC(CCN2CCC(c3c[nH]c4ccccc34)CC2)CC1
[A] 0 (no)

[Q] State whether the measured Inhibition reaches 40%, counting equality as reaching it, for CCC[C@@H](C(=O)NCCc1cccc(OC)c1)N1C(=O)c2c(ccc(OC)c2OC)C1C(=O)Nc1c(C)cccc1C (stereo partly drawn)
[A] 0 (no)

[Q] State whether the measured Inhibition reaches 40%, counting equality as reaching it, for O=C(NCCCCN1CCC(c2ccc3c(c2OCCO)CCCC3)CC1)c1sc(-c2ccc(C(F)(F)F)cc2)nc1CO
[A] 0 (no)

[Q] State whether the measured Inhibition reaches 40%, counting equality as reaching it, for Nc1ccn([C@@H]2O[C@H](COC(c3ccccc3)(c3ccccc3)c3ccccc3)[C@@H](O)[C@@H]2O)c(=O)n1
[A] 0 (no)

[Q] State whether the measured Inhibition reaches 40%, counting equality as reaching it, for Cc1ccccc1Nc1nc(NCc2ccccc2)nc2ccccc12
[A] 0 (no)

[Q] State whether the measured Inhibition reaches 40%, counting equality as reaching it, for CC(C)Oc1cc2c(cc1NS(=O)(=O)c1ccc(-c3cccs3)cc1)CCN(C)CC2.Cl
[A] 0 (no)

[Q] State whether the measured Inhibition reaches 40%, counting equality as reaching it, for CC[C@H](NC(=O)c1c(N)c(-c2sccc2Cl)nc2ccccc12)c1ccccc1
[A] 1 (yes)

[Q] State whether the measured Inhibition reaches 40%, counting equality as reaching it, for c1cn(-c2ccc(CNc3nccc(Nc4ccc(OCCN5CCOCC5)cc4)n3)cc2)cn1
[A] 0 (no)

Others:
[Q] State whether the measured Inhibition reaches 40%, counting equality as reaching it, for COc1cc(Cc2cnc(N)nc2N)ccc1OCc1cccc(Oc2ccccc2)c1
[A] 0 (no)

[Q] State whether the measured Inhibition reaches 40%, counting equality as reaching it, for Nc1ccc2[nH]cc(C3CCN(CC4CCN(C(=O)/C=C/c5ccc(Cl)c(Cl)c5)CC4)CC3)c2n1
[A] 1 (yes)

[Q] State whether the measured Inhibition reaches 40%, counting equality as reaching it, for CCCc1cn2c3c(cc(C(=O)N[C@@H](Cc4ccccc4)[C@H](O)CNC4CCOCC4)cc13)N(CC)S(=O)(=O)CC2.O=CO
[A] 1 (yes)

[Q] State whether the measured Inhibition reaches 40%, counting equality as reaching it, for COc1cc(N(Cc2ccc(F)cc2)C(=O)c2ccc(-c3ccccc3)cc2)ccc1OCCN1CCCC1.Cl
[A] 0 (no)

[Q] State whether the measured Inhibition reaches 40%, counting equality as reaching it, for CN(C)CCNC(=O)[C@H](Cc1ccccc1)NC(=O)c1ccc(O)c(-c2ccc(Cl)c(Cl)c2)c1
[A] 0 (no)

---

system: Plasmodium falciparum; assay: GSK_TCMDC: Inhibition of Plasmodium falciparum 3D7 in whole red blood cells, using parasite LDH activity as an index of growth. Test compounds present at 2uM; format: functional
Listed below: Inhibition values for each entry.
// note: answer is a bare numeric in %

[Q] Plasmodium falciparum / Inhibition / CCOc1cc(C=Cc2nc(O)c3ccccc3n2)cc(Cl)c1O : value?
[A] 83

Others:
[Q] Plasmodium falciparum / Inhibition / Cc1cccc2nc(-c3ccc(-c4ccc(NC(=O)Nc5ccc(Cl)cc5)cc4)s3)[nH]c12 : value?
[A] 100

[Q] Plasmodium falciparum / Inhibition / Cc1cc(N/N=C/c2ccccc2[N+](=O)[O-])c2ccccc2n1 : value?
[A] 100

[Q] Plasmodium falciparum / Inhibition / Cc1ccc2cc(NC(=O)c3cccc(C(=O)Nc4ccc5nc(C)ccc5c4)n3)ccc2n1 : value?
[A] 92

[Q] Plasmodium falciparum / Inhibition / O=C(Cc1cccnc1)Nc1cccc(-c2cccc(-c3nc4cc(C(F)(F)F)ccc4[nH]3)c2)c1 : value?
[A] 99

[Q] Plasmodium falciparum / Inhibition / Cc1cccc(CN2CCCN(Cc3ccc(C(=O)Nc4ccc(C)c(F)c4)cc3)CC2)c1.O=C(O)C(F)(F)F : value?
[A] 85

[Q] Plasmodium falciparum / Inhibition / Cc1cccc2nc(-c3ccc(-c4cccc(CNCCCNS(C)(=O)=O)c4)s3)[nH]c12.O=C(O)C(F)(F)F : value?
[A] 99

[Q] Plasmodium falciparum / Inhibition / COc1ccc(C[C@H](N)C(=O)N[C@H]2[C@@H](O)[C@H](n3cnc4c(N(C)C)ncnc43)O[C@@H]2CO)cc1.Cl : value?
[A] 100

[Q] Plasmodium falciparum / Inhibition / O=C(/C=C/c1ccccc1Cl)Nc1ccc(Br)c(OCCN2CCN(CCN3CCOCC3)CC2)c1.O=C(O)C(=O)O : value?
[A] 98

[Q] Plasmodium falciparum / Inhibition / Cc1cccc(-c2nc(Nc3ccncc3)c3ccc([N+](=O)[O-])cc3n2)n1 : value?
[A] 87

[Q] Plasmodium falciparum / Inhibition / COc1cccc2[nH]c(NCCCNCc3cc(Br)cc(Br)c3)nc12 : value?
[A] 88

[Q] Plasmodium falciparum / Inhibition / O=C(NCc1ccc(Cl)cc1)c1ccc(CN2CCCN(Cc3cccc(O)c3)CC2)cc1.O=C(O)C(F)(F)F : value?
[A] 82

[Q] Plasmodium falciparum / Inhibition / FC(F)c1nc2ccccc2n1-c1nc(N2CCOCC2)nc(N2CCOCC2)n1 : value?
[A] 99

[Q] Plasmodium falciparum / Inhibition / CCC(CO)NCC(O)Cn1c2ccc(Cl)cc2c2cc(Cl)ccc21 (stereo not drawn) : value?
[A] 96

[Q] Plasmodium falciparum / Inhibition / O=C(O)C(F)(F)F.O=S(=O)(NCCN1CCCC1)c1ccc(-c2ccc(CNCc3ccccc3)cc2)s1 : value?
[A] 94

[Q] Plasmodium falciparum / Inhibition / O=C(NC1CCCCC1)c1csc(C2CCCN(C(=O)c3ccc(O)c(-c4cccc(C(F)(F)F)c4)c3)C2)n1 (stereo not drawn) : value?
[A] 96

[Q] Plasmodium falciparum / Inhibition / COc1ccc(S(=O)(=O)N2CCOCC2)cc1NC(=O)c1cc2ccccc2o1 : value?
[A] 93

[Q] Plasmodium falciparum / Inhibition / CC(Cc1ccc(CN(CC(N)=O)Cc2ccc(CC(C)NCCc3cccc(Cl)c3)cc2)cc1)NCCc1cccc(Cl)c1.O=C(O)C(F)(F)F (stereo not drawn) : value?
[A] 95
